For each record, write down the corresponding OD450 at none (no antibody).
Target: T1, human MSLN-R3-his protein (human, UniProt Q13421 487-598)
T1 construct: Region 3 of human MSLN, His-tagged; also called human MSLN-R3 protein; hMSLN-R3-his; not shown: His tag
T1 sequence (Q13421 495-606): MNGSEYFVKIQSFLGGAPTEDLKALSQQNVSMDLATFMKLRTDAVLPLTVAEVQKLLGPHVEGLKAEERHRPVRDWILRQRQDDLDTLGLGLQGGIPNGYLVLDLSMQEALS
Experiment: ELISA, coated MSLN-R3
Dear colleague, please return just the value in OD450, with no unit written.

Quick check: OD450 at none (no antibody) of S009-F1.59.1 (antibody, human IgG1, kappa, V domains shown, Human-murine chimeric antibody, human IgG1/kappa constant regions) VH: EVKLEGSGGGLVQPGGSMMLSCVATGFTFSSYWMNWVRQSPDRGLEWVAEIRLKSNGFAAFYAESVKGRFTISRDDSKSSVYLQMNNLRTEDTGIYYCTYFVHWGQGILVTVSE VL: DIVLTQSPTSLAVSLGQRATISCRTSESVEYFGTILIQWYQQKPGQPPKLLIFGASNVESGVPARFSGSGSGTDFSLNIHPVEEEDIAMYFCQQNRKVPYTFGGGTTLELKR ? 0.05

Quick check: OD450 at none (no antibody) of S009-F1.57.1 (antibody, human IgG1, kappa, V domains shown, Human-murine chimeric antibody, human IgG1/kappa constant regions) VH: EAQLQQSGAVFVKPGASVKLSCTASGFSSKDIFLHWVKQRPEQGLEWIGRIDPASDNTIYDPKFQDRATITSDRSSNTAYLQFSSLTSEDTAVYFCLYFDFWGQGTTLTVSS VL: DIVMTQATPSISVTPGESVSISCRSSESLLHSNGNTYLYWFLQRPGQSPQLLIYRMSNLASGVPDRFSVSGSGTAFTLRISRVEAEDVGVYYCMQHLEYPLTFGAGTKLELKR ? 0.05

Quick check: OD450 at none (no antibody) of S009-F1.35.24 (antibody, human IgG1, kappa, V domains shown, Human-murine chimeric antibody, human IgG1/kappa constant regions) VH: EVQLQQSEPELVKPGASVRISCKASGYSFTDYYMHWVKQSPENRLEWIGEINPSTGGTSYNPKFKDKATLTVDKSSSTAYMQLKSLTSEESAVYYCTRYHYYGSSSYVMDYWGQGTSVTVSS VL: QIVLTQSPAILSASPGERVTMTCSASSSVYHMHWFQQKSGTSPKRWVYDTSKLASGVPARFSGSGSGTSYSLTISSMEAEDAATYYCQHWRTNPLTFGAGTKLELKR ? 0.05

Quick check: OD450 at none (no antibody) of S009-F1.2.12 (antibody, human IgG1, kappa, V domains shown) VH: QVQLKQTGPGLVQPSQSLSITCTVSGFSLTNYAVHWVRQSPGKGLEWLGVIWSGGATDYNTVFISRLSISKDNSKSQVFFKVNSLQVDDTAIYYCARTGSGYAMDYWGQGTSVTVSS VL: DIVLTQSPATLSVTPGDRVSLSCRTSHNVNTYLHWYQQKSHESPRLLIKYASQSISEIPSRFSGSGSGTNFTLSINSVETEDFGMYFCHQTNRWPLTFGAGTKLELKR ? 0.06
